Recorded normalized growth for the following compounds
assay: chemical genetic growth profiling, strain panel (AID 1159580);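 note: tested at 20 µM; growth read once vehicle control cultures reached saturation at 30 °C; 1 = growth at the plate median or of vehicle wells; lower values mean less growth of the strain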; details: S. cerevisiae deletion strains, growth OD, locus YKL101W, strain HSL1, active compounds read low
Among all 5,500 compounds or so, about 2,000 (36%) were called active. Roughly 18% stayed inconclusive and do not appear here. The list shows a part of the results.
reportedProperty: normalized growth

>>> print(df.to_string())
                             compoundsmiles   reportedproperty       resultvalue
0    ClC1=C(C=Nc2ccc(Cl)cc2)CSc2ccc(Cl)cc21  normalized growth  0.893 (inactive)
1  OC(=Cc1nc2ccccc2nc1C=C(O)c1ccc(Cl)cc1)c1ccc(Cl)cc1  normalized growth    0.8 (inactive)
2   CC(C)(C)c1ccc(C(=O)NNc2c(Cl)cccc2Cl)cc1  normalized growth   0.89 (inactive)
3  Cc1onc(-c2c(F)cccc2Cl)c1C(=O)ON=C1C2CC3CC(C2)CC1C3  normalized growth   0.94 (inactive)
4  CC1(C)OC(=O)C(=Cc2cccn2-c2ccc(C(F)(F)F)cc2)C(=O)O1  normalized growth  0.885 (inactive)
5  CC1(C)OC(=O)C(=Cc2cccn2-c2ccc(OC(F)(F)F)cc2)C(=O)O1  normalized growth   0.89 (inactive)
6   Cc1c(-c2ccnn2C(=O)c2ccco2)cnn1-c1ccccc1  normalized growth  0.894 (inactive)

###

experiment: chemical genetic growth profiling, strain panel (AID 1159580);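 note: tested at 20 µM; growth read once vehicle control cultures reached saturation at 30 °C; 1 = growth at the plate median or of vehicle wells; lower values mean less growth of the strain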; conditions: S. cerevisiae deletion strains, growth OD, locus YJL157C, strain FAR1
About 2,000 (36%) of roughly 5,500 compounds were called active. Not shown: some 18% with an inconclusive outcome. No stated cut-off is given here; in the data, active means normalized growth mostly below about 0.91 (no sharp cut-off); inconclusive means no clear call, values can overlap the other calls; inactive means mostly above about 0.92. The list shows a part of the results.
Classes used: T for active, F for inactive

                                    compound  class
 0  Cc1onc(-c2c(F)cccc2Cl)c1C(=O)NNc1cc(Cl)cc(Cl)c1      F
 1  Cc1onc(-c2c(Cl)cccc2Cl)c1C(=O)NNc1c(Cl)cccc1Cl      F
 2  FC(F)(F)c1ccnc(N2CCCN(C(=S)Nc3ccc(Cl)cc3Cl)CC2)n1      F
 3  O=c1c2ccccc2[nH]c(=S)n1-c1cccc(C(F)(F)F)c1      F
 4  O=C(Nc1ccc(OC(F)(F)F)cc1)OC1CN(C(c2ccccc2)c2ccccc2)C1      F
 5  Cc1ccc(NS(=O)(=O)c2ccc(-c3csc(C)n3)s2)c(C)c1      F
 6   CC(C)(C)c1ccc(C(=O)NNc2c(Cl)cccc2Cl)cc1      F
 7  CC1(C)OC(=O)C(=Cc2cccn2-c2ccc(OC(F)(F)F)cc2)C(=O)O1      F
 8  O=[N+]([O-])c1ccc2oc(C(O)c3cccc(Cl)c3)cc2c1 (stereo unspecified)      F
 9  Cc1onc(-c2c(F)cccc2Cl)c1C(=O)ON=C1C2CC3CC(C2)CC1C3      F
10           Cc1ccc(NNC(=O)c2c(C)noc2C)cc1Cl      F
11  O=C(Nc1ccc(OC(F)(F)F)cc1)N1CCN(c2nc(-c3ccccc3)ns2)CC1      F
12  Cc1nc(-c2ccc(S(=O)(=O)Nc3ccc(Br)cc3Cl)s2)cs1      F
13  CC(=O)ON=C1c2cc([N+](=O)[O-])ccc2-c2ccc([N+](=O)[O-])cc21      F
14  CCCCCCCCCCCC(=O)NOC(=O)c1c(-c2c(Cl)cccc2Cl)noc1C      F
15              CCc1ccn2cc(Nc3ccccc3Cl)nc2c1      F
16  O=[N+]([O-])c1ccc2oc(C(O)c3ccc(-c4ccccc4)cc3)cc2c1 (stereo unspecified)      F
17  CC(C)(CCC(C)(C)N1C(=O)c2cccc3cccc(c23)C1=O)N1C(=O)c2cccc3cccc(c23)C1=O      T
18        O=C(NNc1ccc(I)cc1)c1cc(Cl)cc(Cl)c1      F
19  CC1(C)OC(=O)C(=Cc2cccn2-c2ccc(C(F)(F)F)cc2)C(=O)O1      F
20  Cc1c(C(=O)N(Cc2ccccc2)Cc2cccs2)cnn1-c1ccc(Cl)cc1      F

Values from PubChem BioAssay AID1159580
